These measurements were taken from patent US20220235065A1.

Biological target: EHMT1 (Homo sapiens, UniProt Q9H9B1)
Sequence (Q9H9B1 1-1298): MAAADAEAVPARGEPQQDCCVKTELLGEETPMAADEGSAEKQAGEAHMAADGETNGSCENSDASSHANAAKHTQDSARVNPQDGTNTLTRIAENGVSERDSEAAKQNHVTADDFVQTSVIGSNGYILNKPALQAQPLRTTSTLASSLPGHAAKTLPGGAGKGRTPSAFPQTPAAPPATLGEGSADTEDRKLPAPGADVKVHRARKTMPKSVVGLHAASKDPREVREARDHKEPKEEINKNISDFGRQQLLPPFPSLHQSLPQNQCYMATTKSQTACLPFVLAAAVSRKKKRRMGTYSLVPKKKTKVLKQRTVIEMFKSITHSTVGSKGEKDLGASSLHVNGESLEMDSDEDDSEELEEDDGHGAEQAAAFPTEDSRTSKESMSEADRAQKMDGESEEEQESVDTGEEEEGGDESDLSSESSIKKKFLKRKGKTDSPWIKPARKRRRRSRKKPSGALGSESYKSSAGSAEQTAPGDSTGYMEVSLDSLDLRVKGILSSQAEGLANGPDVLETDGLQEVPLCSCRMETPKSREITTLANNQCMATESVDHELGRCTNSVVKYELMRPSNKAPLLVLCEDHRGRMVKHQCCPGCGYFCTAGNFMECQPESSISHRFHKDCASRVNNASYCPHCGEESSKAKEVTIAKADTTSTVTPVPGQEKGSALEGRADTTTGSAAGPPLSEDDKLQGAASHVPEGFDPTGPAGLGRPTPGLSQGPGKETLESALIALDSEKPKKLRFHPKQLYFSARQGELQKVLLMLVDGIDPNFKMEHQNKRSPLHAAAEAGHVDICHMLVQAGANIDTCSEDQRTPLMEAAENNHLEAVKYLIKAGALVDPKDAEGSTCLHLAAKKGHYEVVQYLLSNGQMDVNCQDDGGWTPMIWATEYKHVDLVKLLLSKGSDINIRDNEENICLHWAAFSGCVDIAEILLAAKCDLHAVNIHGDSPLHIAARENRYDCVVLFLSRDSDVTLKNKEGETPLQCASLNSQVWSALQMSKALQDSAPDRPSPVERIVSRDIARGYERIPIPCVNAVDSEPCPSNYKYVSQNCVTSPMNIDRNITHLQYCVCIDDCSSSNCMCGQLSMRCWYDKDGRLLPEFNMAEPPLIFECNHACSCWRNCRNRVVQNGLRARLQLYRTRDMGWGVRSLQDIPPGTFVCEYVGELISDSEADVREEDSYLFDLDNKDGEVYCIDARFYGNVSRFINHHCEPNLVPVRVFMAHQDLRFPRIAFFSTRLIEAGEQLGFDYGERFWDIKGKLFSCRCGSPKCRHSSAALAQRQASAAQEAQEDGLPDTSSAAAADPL
Assay: EHMT1 PEP (EHMT1 peptide enzyme assay)
Format: biochemical
Settings: peptide substrate enzyme assay
IC50 values, listed per item

Known results for molecules:
1) CNc1cc(C)nc(Nc2ccc(OC)c(-c3c(C)nc4n3CCNC4)c2)n1; > 10 µM
2) CNC(=O)c1cn(-c2cc(Nc3nc(C)cc(NC)n3)ccc2OC)nc1C; > 10 µM
3) CNc1cc(C)nc(Nc2ccc(OC)c(-c3nnc4n3CCN(C)C4)c2)n1; > 10 µM

API: value(readout= IC50, system= EHMT1 (Homo sapiens, UniProt Q9H9B1), query= CNCc1cnn(-c2c(OC)ccc(Nc3nc(C)cc(NC)n3)c2F)c1 )
< 0.1 µM

API: value(readout= IC50, system= EHMT1 (Homo sapiens, UniProt Q9H9B1), query= CNc1cc(C)nc(Nc2ccc(C)c(-c3cc4[nH]ccc4cn3)c2)n1 )
< 0.1 µM

API: value(readout= IC50, system= EHMT1 (Homo sapiens, UniProt Q9H9B1), query= CNc1nc2cc(-c3cnc4cc[nH]c4c3)c(OC)cc2n1C )
0.1 to 1 µM
